Known melting point of a selection of compounds
readout_name: melting point

| compound | assay_result |
| --- | --- |
| COC(=O)C1=C(C)NC(C)=C(C(=O)OC)C1c1ccc(F)c(NC(=S)NNC(=O)CN2CCC(c3cccc(OC)c3)CC2)c1 [Example 22] | 114 to 120 °C |
| COC(=O)C1=C(C)NC(C)=C(C(=O)OC)C1c1cccc(NC(=S)NNC(=O)CN2CCC(c3ccccc3)CC2)c1 [Example 19] | 125 to 130 °C |
| COC(=O)C1=C(C)NC(C)=C(C(=O)OC)C1c1cccc(NC(=O)NNC(=O)CN2CCC(c3ccccc3)CC2)c1 [Example 18] | 138 to 143 °C |
| COC(=O)C1=C(C)NC(C)=C(C(=O)OC)C1c1cccc(NC(=S)NNC(=O)CN2CCC(c3cccc(OC)c3)CC2)c1 [Example 20] | 113 to 116 °C |
